# Target System: EGFR(Dell9_T790M_C797S) (aa 669-1210, in house) (Homo sapiens, UniProt P00533, T790M/C797S, form not given)
# Sequence (P00533 with tags, fused parts or gaps DEL746-750/T790M/C797S, form open): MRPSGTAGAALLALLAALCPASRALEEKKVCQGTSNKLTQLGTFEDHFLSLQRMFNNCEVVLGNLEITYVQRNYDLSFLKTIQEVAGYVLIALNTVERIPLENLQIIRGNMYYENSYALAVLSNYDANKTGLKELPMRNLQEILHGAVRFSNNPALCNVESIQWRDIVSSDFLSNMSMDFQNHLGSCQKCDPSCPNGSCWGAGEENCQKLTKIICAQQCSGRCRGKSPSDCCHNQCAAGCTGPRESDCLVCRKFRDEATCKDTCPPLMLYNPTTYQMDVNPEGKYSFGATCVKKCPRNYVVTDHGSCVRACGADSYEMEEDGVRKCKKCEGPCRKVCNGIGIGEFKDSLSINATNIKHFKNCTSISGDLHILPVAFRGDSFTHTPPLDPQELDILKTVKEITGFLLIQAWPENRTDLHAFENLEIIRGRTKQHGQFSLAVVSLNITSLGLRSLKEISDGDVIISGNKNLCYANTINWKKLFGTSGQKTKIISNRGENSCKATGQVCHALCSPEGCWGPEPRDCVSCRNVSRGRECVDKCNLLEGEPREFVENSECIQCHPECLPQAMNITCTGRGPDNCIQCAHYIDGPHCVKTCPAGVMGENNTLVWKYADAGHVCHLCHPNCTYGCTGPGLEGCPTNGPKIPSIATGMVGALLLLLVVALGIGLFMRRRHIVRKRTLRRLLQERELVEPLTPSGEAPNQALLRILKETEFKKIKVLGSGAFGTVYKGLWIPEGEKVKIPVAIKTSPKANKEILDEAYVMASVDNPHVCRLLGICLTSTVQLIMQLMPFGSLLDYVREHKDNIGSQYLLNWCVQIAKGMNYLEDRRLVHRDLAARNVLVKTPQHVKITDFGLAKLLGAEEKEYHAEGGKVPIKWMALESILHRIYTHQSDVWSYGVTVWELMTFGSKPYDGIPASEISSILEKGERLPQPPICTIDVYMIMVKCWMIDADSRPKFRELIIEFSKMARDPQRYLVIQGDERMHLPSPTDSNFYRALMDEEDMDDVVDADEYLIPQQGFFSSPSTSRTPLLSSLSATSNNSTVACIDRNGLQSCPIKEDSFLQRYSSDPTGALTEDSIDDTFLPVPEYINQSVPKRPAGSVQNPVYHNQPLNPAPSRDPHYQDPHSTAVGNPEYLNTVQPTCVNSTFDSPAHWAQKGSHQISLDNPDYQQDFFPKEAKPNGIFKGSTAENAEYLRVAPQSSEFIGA
# Method: Biochemical EGFR inhibition assay (TR-FRET), Del19/T790M/C797S mutant
# Test Settings: ATP at Km, 15 min pre-incubation, 60 min reaction; read-out: Del_TM_CS (Km ATP) IC50
Measurement Kind: IC50 (nM)
Provide only the numeric value, understood in nM.

COc1cc(N2C[C@H]3CN(C)C[C@H]3C2)c(C)cc1Nc1nc(Nc2cccc3c2N(S(C)(=O)=O)CC3)c2cc[nH]c2n1 [Example 102] = 2
COc1cc(N2CCC(N3CCN(C)C(=O)C3)CC2)ccc1Nc1nc(Nc2cccc3c2N(S(C)(=O)=O)CC3)c2cc[nH]c2n1 [Example 186] = 4.9
C#Cc1cnc(Nc2ccc(N3CCC(N4CCN(C)CC4)CC3)cc2OC)nc1Nc1cccc2c1N(S(C)(=O)=O)CC2 [Example 196] = 1.5
COc1cc(N2CCC(N3CCN(C)CC3=O)CC2)ccc1Nc1nc(Nc2cccc3c2N(S(C)(=O)=O)CC3)c2cc[nH]c2n1 [Example 191] = 1.9
COc1cc(N2CCC(N3CCN(C)CC3)CC2)ccc1Nc1ncc(Cl)c(Nc2cccc3c2N(S(C)(=O)=O)CC3C)n1 (stereo not drawn) [Example 23] = 0.54

# ---- query compound ----
Which IC50 is reported for this compound? COc1cc(N2CCC(N3CCN(C)CC3)CC2)c(C)cc1Nc1ncc(Br)c(Nc2cccc3c2N(S(C)(=O)=O)CC32CC2)n1 [Example 181] 0.6

###

# Target System: EGFR (aa668-1210, Invitrogen) (Homo sapiens)
pIC50: −log10 of the molar value.
Decision: pIC50 >= 7 yields TRUE, all other cases yield FALSE.

CN1CCN(c2ccc(Nc3ncc(Br)c(Nc4cccc5c4N(S(C)(=O)=O)CC5)n3)c3c2CC(C)(C)O3)CC1 = FALSE
COc1cc(N2CCC(N3CCN(C)CC3)CC2)ccc1Nc1nc(Nc2cccc3c2N(S(C)(=O)=O)CC3)c2[nH]ccc2n1 = FALSE
COc1cc(N2CCC(N(C)C)CC2)c(C)cc1Nc1nc(Nc2cccc3c2N(S(C)(=O)=O)CC3)c2cc[nH]c2n1 = TRUE
COc1cc(Nc2nc(Nc3cccc4c3N(S(C)(=O)=O)CC4)c3cc[nH]c3n2)cc(F)c1N1CCC(N2CCN(C)CC2)CC1 = FALSE

Decide: is the reported value of pIC50 for COc1cc(N2CCC(N3CCN(C)CC3)CC2)ccc1Nc1ncc(Cl)c(Nc2cccc3c2N(S(=O)(=O)N(C)C)CC3)n1 equal to or greater than 7? TRUE

Repeat for the following molecule: CN1CCN(C2CCN(c3ccc(Nc4nc(Nc5cccc6c5N(S(C)(=O)=O)CC6)c5cc[nH]c5n4)nc3)CC2)CC1 FALSE

Then what about the molecule COc1cc(-c2cnn(CCN3CCN(C)CC3)c2)ccc1Nc1nc(Nc2cccc3c2N(S(C)(=O)=O)CC3)c2cc[nH]c2n1 ? FALSE

###

# Target System: BaF3-Del_TM_CS cells (Homo sapiens, UniProt P00533, T790M/C797S, cells depend on it, form not given)
# Sequence (P00533 with tags, fused parts or gaps DEL746-750/T790M/C797S, form open): as the sequence (P00533 with tags, fused parts or gaps DEL746-750/T790M/C797S, form open) above
# Method: Cell antiproliferation assay (CellTiter-Glo), BaF3-Del_TM_CS
# Assay type: cell-based
# Test Settings: 48 h treatment, read-out: BaF3-Del_TM_CS IC50
GI50: recorded values
Your answer is read as nM, so omit the unit and give the number.

CCc1cc(Nc2ncc(Cl)c(Nc3cccc4c3N(S(C)(=O)=O)CC4)n2)c(OC)cc1N1CCC(N2CCN(C)CC2)CC1 = 6.06
COc1cc(N2CCC(N3CCN(C)CC3)CC2)ccc1Nc1ncc(Cl)c(Nc2cccc3c2N(S(C)(=O)=O)CCC3)n1 = 46
CN1CCN(c2ccc(Nc3nc(Nc4cccc5c4N(S(C)(=O)=O)CC5)c4cc[nH]c4n3)cc2F)CC1 = 10.7

Okay, now this compound:
I have this compound here, COc1cc(N2CCC(N3CCN(C)CC3)CC2)c(F)cc1Nc1nc(Nc2cccc3c2N(S(C)(=O)=O)CC3)c2cc[nH]c2n1 , and I need its recorded GI50. 24.7

###

# Target System: BaF3-WT cells (Homo sapiens, UniProt P00533)
# Sequence (P00533 whole entry, change not shown): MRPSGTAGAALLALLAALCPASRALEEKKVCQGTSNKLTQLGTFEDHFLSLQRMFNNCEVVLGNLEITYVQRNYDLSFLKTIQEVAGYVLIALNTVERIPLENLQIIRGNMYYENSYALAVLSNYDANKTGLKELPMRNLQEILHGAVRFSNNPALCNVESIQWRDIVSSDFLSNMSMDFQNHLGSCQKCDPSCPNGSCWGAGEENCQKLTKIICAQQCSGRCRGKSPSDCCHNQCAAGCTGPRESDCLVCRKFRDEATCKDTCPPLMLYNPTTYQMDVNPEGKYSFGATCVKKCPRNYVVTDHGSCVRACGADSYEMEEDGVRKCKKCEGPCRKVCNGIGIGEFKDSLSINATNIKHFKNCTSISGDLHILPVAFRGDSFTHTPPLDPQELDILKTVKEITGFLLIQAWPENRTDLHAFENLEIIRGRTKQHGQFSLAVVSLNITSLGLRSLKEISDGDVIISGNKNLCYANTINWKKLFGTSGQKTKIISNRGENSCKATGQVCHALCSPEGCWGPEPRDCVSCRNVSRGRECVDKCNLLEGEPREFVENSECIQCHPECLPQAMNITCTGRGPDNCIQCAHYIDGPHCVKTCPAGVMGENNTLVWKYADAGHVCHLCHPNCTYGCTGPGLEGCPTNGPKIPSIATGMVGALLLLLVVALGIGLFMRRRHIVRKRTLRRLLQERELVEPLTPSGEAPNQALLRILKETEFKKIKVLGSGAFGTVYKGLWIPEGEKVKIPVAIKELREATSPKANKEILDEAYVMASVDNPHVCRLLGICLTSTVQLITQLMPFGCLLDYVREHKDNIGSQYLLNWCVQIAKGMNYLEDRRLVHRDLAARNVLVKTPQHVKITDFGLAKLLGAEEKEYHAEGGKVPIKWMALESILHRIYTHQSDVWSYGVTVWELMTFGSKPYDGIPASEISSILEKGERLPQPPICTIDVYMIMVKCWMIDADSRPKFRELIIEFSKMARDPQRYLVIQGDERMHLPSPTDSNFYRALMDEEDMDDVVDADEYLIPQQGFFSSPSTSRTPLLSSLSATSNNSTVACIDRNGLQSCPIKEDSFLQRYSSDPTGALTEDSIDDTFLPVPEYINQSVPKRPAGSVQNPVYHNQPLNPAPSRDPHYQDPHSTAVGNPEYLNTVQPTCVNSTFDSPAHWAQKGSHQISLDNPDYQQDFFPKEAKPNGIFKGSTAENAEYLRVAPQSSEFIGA
# Method: Cell antiproliferation assay (CellTiter-Glo), BaF3-WT
# Format: cell-based
# Test Settings: 48 h treatment, read-out: BaF3-WT IC50
Measurement Kind: GI50 (nM)
The response must be a number in nM with no trailing unit.

Cc1cc(Nc2nc(Nc3cccc4c3N(S(C)(=O)=O)CC4)c3cc[nH]c3n2)c(OC(C)C)cc1N1CCC(N2CCN(C)CC2)CC1 = 1400

Can you share its GI50? I mean this compound: COc1cc(N2C[C@@H](C)N(C)[C@@H](C)C2)c(C)cc1Nc1nc(Nc2cccc3c2N(S(C)(=O)=O)CC3)c2cc[nH]c2n1 1790

One more compound: COc1cc(N2CCC(N3CCN(C)CC3)CC2)ccc1Nc1nc(Nc2cccc3c2N(S(C)(=O)=O)CC3)c2cc[nH]c2n1 2560

Item: COc1cc(N2CCC(N3CCN(C)CC3)CC2)ccc1Nc1ncc(C#N)c(Nc2cccc3c2N(S(C)(=O)=O)CC3)n1 328

Thanks! And COc1cc(N2CCC(N3CCN(C)CC3)CC2)c(Cl)cc1Nc1nc(Nc2cccc3c2N(S(C)(=O)=O)CC3)c2cc[nH]c2n1 ? 1960

Moving on to the next compound: COc1cc(C2CCN(C)CC2)c(C)cc1Nc1nc(Nc2cccc3c2N(S(C)(=O)=O)CC3)c2cc[nH]c2n1 1970

###

# Target System: BaF3-WT cells (Homo sapiens, UniProt P00533)
# Method: Cell antiproliferation assay (CellTiter-Glo), BaF3-WT
# Assay type: cell-based
# Test Settings: 48 h treatment, read-out: BaF3-WT IC50
// classify: if (GI50 < 0.5 µM) T else F

COc1cc(N2CCC(N3CCN(C)CC3)CC2)ccc1Nc1ncc(Cl)c(Nc2ccc(C)c3c2N(S(C)(=O)=O)CC3)n1 = T
COc1cc(C2CCC(N(C)C)CC2)c(C)cc1Nc1nc(Nc2cccc3c2N(S(C)(=O)=O)CC3)c2cc[nH]c2n1 (centres unmarked) = F
CN(C)C1CCN(c2ccc(Nc3ncc(Cl)c(Nc4cccc5c4N(S(C)(=O)=O)CC5)n3)c3c2CCO3)CC1 = F
COc1cc(N2CCC(N(C)C)CC2)c(C)cc1Nc1nc(Nc2cccc3c2N(S(C)(=O)=O)CC3)c2cc[nH]c2n1 = F

Below: the item to evaluate.
For CN(C)C1CCN(c2ccc(Nc3nc(Nc4cccc5c4N(S(C)(=O)=O)CC5)c4cc[nH]c4n3)c3c2CCO3)CC1 , is the recorded GI50 below the cut-off of 0.5 µM? T

###

# Target System: EGFR(Dell9_T790M_C797S) (aa 669-1210, in house) (Homo sapiens, UniProt P00533, T790M/C797S, form not given)
# Method: Biochemical EGFR inhibition assay (TR-FRET), Del19/T790M/C797S mutant
# Test Settings: ATP at Km, 15 min pre-incubation, 60 min reaction; read-out: Del_TM_CS (Km ATP) IC50
Please note: IC50 exactly at 0.5 nM is FALSE. Only values below 0.5 nM get TRUE.

COc1cc(N2CCC(N3CCN(C)CC3)CC2)ccc1Nc1ncc(C(F)(F)F)c(Nc2cccc3c2N(S(C)(=O)=O)CC3)n1 = TRUE

Lab log: compare recorded IC50 with 0.5 nM; is it strictly lower for COc1cc(N2CCC(N3CCN(C)C4(CC4)C3)CC2)ccc1Nc1ncc(Br)c(Nc2cccc3c2N(S(C)(=O)=O)CC3)n1 ? TRUE

// query: CCOc1cc(N2CCC(N3CCN(C)CC3)CC2)c(C)cc1Nc1nc(Nc2cccc3c2N(S(C)(=O)=O)CC3)c2cc[nH]c2n1 FALSE

Queued: COc1cc(N2CCC(N3CCN(C)CC3)CC2)ccc1Nc1ncc(Cl)c(Nc2cccc3c2N(S(=O)(=O)CCc2ccccc2)CC3)n1 FALSE

How about Cc1cc(Nc2nc(Nc3cccc4c3N(S(C)(=O)=O)CC4)c3cc[nH]c3n2)c(OC(C)C)cc1N1CCC(N2CCN(C)CC2)CC1 ? FALSE

Next: COc1cc(N2CCC(N3CCN(C)CC3)CC2)ccc1Nc1ncc(Br)c(Nc2cccc3c2N(S(C)(=O)=O)C(C)(C)C3)n1 FALSE

###

Lab note: IC50 readings collected with EGFR (aa668-1210, Invitrogen) (Homo sapiens, UniProt P00533) for the following molecules.
Sequence (P00533 668-1210): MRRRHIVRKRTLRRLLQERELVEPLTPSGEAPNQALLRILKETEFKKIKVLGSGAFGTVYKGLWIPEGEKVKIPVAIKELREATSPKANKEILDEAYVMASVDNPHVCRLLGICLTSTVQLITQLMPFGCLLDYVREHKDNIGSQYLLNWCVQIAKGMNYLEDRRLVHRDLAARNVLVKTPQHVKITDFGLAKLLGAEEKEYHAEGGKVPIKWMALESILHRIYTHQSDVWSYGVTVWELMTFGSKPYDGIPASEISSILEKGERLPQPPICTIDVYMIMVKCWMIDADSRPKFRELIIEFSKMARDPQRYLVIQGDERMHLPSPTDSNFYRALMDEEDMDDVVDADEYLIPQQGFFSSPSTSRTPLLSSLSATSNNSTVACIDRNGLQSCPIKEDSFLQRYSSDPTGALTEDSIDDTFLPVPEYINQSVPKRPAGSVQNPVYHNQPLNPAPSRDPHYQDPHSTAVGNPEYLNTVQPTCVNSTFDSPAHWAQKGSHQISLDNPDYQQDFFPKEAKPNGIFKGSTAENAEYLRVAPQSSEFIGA

COc1cc(N2CCC(N3CCN(C)CC3)CC2)ccc1Nc1ncc(Cl)c(Nc2cccc3c2N(S(C)(=O)=O)CCC3)n1 = 2.6 nM
COc1cc(N2CCC(N3CCN(C)CC3)CC2)ccc1Nc1ncc(C#N)c(Nc2cccc3c2N(S(C)(=O)=O)CC3)n1 = 1.3 nM
COc1cc(N2CCC(N3CCN(C)CC3)CC2)ccc1Nc1ncc(Cl)c(Nc2cccc3c2N(S(=O)(=O)CCc2ccccc2)CC3)n1 = 14 nM
COc1cc(N2CCC(N3CCN(C)CC3)CC2)c(C)cc1Nc1ncc(Br)c(Nc2cccc3c2N(S(C)(=O)=O)CC32CC2)n1 = 0.9 nM
CN(C)C1CCN(c2ccc(Nc3ncc(Br)c(Nc4cccc5c4N(S(C)(=O)=O)CC5)n3)c3c2OCO3)CC1 = 5.5 nM

Endpoint output: IC50 of COc1cc(N2CCC(N3CCN(C)CC3)CC2)ccc1Nc1ncc(Cl)c(Nc2ccc(C)c3c2N(S(C)(=O)=O)CC3)n1 . Value? 0.49 nM

Check COc1cc(N2CCC(N3CCN(C)CC3)CC2)c(C)cc1Nc1nc(Nc2cccc3c2N(S(C)(=O)=O)CC3)c2cc[nH]c2n1 too. 17 nM
